Please respond with reported Ki for every item in the list.
Target: MMP-1 (Homo sapiens)
Construct: made in house; host or cells: MMP-1-transfected HT-1080 cells (spent media)
Sequence (P03956 100-469): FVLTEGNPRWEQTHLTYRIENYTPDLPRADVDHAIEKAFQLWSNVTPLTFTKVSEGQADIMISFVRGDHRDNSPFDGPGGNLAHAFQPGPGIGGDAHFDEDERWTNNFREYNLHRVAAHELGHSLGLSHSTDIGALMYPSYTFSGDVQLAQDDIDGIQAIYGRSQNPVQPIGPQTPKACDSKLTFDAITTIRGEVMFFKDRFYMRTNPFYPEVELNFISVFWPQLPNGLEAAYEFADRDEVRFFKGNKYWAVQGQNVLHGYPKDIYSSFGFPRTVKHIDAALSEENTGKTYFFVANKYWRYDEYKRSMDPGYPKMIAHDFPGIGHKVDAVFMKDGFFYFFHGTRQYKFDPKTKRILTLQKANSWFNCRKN
Assay: In vitro MMP inhibition, Ki determination (fluorogenic substrate II)
Format: biochemical
Details: value outside parentheses; read-out: MMP-1 Ki

# lookup: MMP-1 (Homo sapiens) Ki, key = `O=C(NO)C1(S(=O)(=O)N2CCN(c3ncc(-c4ccc(O)cc4)s3)CC2)CCOCC1`
3.35 µM

Report value only: Ki, MMP-1 (Homo sapiens), `CCCCOc1ccc(N2CCN(S(=O)(=O)C3(C(=O)NO)CCN(C(=O)N(C)C)CC3)CC2)cc1`
> 10 µM

Recall the reported Ki of `CS(=O)(=O)c1ccc(N2CCN(S(=O)(=O)C3(C(=O)NO)CCOCC3)CC2)cc1` when tested on MMP-1 (Homo sapiens).
> 10 µM

# return Ki for `CCCCOc1ccc(N2CCN(S(=O)(=O)C3(C(=O)NO)CCN(C(N)=O)CC3)CC2)cc1` , test system: MMP-1 (Homo sapiens)
> 10 µM

Report the value of Ki obtained on MMP-1 (Homo sapiens) for `COCCN1CCC(C(=O)NO)(S(=O)(=O)N2CCC(c3ccc(CCC(F)(F)F)cc3)CC2)CC1` .
> 10 µM

State recorded Ki with MMP-1 (Homo sapiens), entry `O=C(NO)C1(S(=O)(=O)N2CCN(c3ccc(-c4ccc(Cl)c(Cl)c4)cc3)CC2)CCOCC1` , no comment.
3.72 µM

Check MMP-1 (Homo sapiens) data and give Ki for `O=C(NO)C1(S(=O)(=O)N2CCC(COCC(F)(F)C(F)(F)C(F)(F)F)CC2)CCOCC1` .
> 10 µM

# return Ki for `CCCCc1ccc(N2CCN(S(=O)(=O)C3(C(=O)NO)CCN(CCOC)CC3)CC2)nc1` , test system: MMP-1 (Homo sapiens)
> 10 µM

State Ki (MMP-1 (Homo sapiens)) of `CCCCOc1ccc(N2CCN(S(=O)(=O)C3(C(=O)NO)CCN(C(=O)C4CC4)CC3)CC2)cc1` .
> 10 µM

Specify the recorded Ki for `CCCCOc1cccc(N2CCN(S(=O)(=O)C3(C(=O)NO)CCOCC3)CC2)c1` , system: MMP-1 (Homo sapiens).
> 10 µM

Recall the reported Ki of `O=C(NO)C1(S(=O)(=O)N2CCN(c3nc(-c4ccccc4)cs3)CC2)CCOCC1` when tested on MMP-1 (Homo sapiens).
> 10 µM

Write down the reported Ki (system: MMP-1 (Homo sapiens)) of `O=C(NO)C1(S(=O)(=O)N2CCC(c3ccc(-c4ccccn4)cn3)CC2)CCOCC1`
> 10 µM

Write Ki of `O=C(NO)C1(S(=O)(=O)N2CCN(c3ncc(-c4ccc(-c5ccccc5)cc4)s3)CC2)CCOCC1` ; system used: MMP-1 (Homo sapiens)
> 2.5 µM

Provide the reported Ki (system: MMP-1 (Homo sapiens)) for `O=C(NO)C1(S(=O)(=O)N2CCN(c3ncc(-c4ccc(OC(F)(F)F)cc4)s3)CC2)CCOCC1`
3.94 µM

Give the observed Ki of `O=C(NO)C1(S(=O)(=O)N2CCC(c3ccc(-c4ccc(C(F)(F)F)cc4)cn3)CC2)CCOCC1` for MMP-1 (Homo sapiens).
> 10 µM

Quote MMP-1 (Homo sapiens) Ki for entry `O=C(NO)C1(S(=O)(=O)N2CCN(c3ncc(/C=C/c4ccccc4)s3)CC2)CCOCC1` .
> 2.5 µM

Consider the compound `Cc1ccc(-c2ccc(C3CCN(S(=O)(=O)C4(C(=O)NO)CCOCC4)CC3)nc2)s1` tested on MMP-1 (Homo sapiens); state its Ki.
6.42 µM

Look up MMP-1 (Homo sapiens) data: Ki of `COCCN1CCC(C(=O)NO)(S(=O)(=O)N2CCN(c3ccc(Oc4ccccc4)cc3)CC2)CC1` , then report it.
> 10 µM

Print MMP-1 (Homo sapiens) Ki for `CCCCOc1ccc(N2CCN(S(=O)(=O)C3(C(=O)NO)CCN(c4ccc(O)nn4)CC3)CC2)cc1` .
9.79 µM

Tell me Ki of `O=C(NO)C1(S(=O)(=O)N2CCC(COCc3ccc(OC(F)(F)F)cc3)CC2)CCOCC1` when tested on MMP-1 (Homo sapiens).
> 10 µM

Write down the reported Ki (system: MMP-1 (Homo sapiens)) of `CCCCOc1ccc(N2CCN(S(=O)(=O)C3(C(=O)NO)CCN(c4ccc(C(F)(F)F)cn4)CC3)CC2)cc1`
> 10 µM

Report the value of Ki obtained on MMP-1 (Homo sapiens) for `O=C(NO)C1(S(=O)(=O)N2CCN(c3cccc(OCCCC(F)(F)F)c3)CC2)CCOCC1` .
> 10 µM

====

molecular target: MMP-2 (Homo sapiens, UniProt P08253); construct: made in house; host or cells: MMP-2-transfected p2AHT2 cells; assay: In vitro MMP inhibition, Ki determination (fluorogenic substrate II); type: biochemical; conditions: value outside parentheses; read-out: MMP-2 Ki
Sequence (P08253 110-660): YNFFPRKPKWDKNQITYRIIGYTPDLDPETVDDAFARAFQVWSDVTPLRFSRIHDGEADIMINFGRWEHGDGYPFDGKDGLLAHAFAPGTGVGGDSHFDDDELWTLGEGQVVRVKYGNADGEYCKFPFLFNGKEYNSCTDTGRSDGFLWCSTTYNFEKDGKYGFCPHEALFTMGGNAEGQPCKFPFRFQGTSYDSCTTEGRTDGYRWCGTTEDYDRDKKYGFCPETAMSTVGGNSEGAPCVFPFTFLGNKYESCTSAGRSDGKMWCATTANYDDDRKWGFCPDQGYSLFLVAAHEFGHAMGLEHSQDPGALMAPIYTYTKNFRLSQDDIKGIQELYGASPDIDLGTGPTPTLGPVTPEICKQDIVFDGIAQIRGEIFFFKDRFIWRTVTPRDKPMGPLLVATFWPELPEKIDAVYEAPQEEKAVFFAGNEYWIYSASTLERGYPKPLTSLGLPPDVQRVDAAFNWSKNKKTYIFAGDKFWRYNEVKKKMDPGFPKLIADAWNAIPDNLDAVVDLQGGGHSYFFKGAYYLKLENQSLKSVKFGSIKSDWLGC
reported-endpoint: pKi
The value called pKi is obtained by taking minus log10 of the concentration in mol/L.

Give a short answer stating reported pKi for CCCCOc1ccc(N2CCN(S(=O)(=O)C3(C(=O)NO)CCN(c4ccccc4)CC3)CC2)cc1 [Example 264] .
8.08

Please supply the value of reported pKi for the item O=C(NO)C1(S(=O)(=O)N2CCN(c3ccc(OCC(F)(F)C(F)F)cc3)CC2)CCOCC1 [Example 326]
9.47

Supply measured pKi of CCCCOc1ccc(N2CCN(S(=O)(=O)C3(C(=O)NO)CCN(CC4CC4)CC3)CC2)cc1 [Example 298] in your reply.
8.49

Supply pKi value. Item: CCCCc1ccc(C2(O)CCN(S(=O)(=O)C3(C(=O)NO)CCOCC3)CC2)nc1 [Example 420]
6.74

====

target: MMP-2 (Homo sapiens, UniProt P08253); construct: made in house; host or cells: MMP-2-transfected p2AHT2 cells; test: MMP-2 inhibition (in vitro Ki); format: biochemical; conditions: Table 8; read-out: MMP-2 Ki
Sequence (P08253 110-660, species assumed): as the sequence (P08253 110-660) above
Structures can show the parent of a compound that is named as a salt.
Give measured log10 of Ki for each item. Keep answers brief.
log10 Ki, nM

Return log10 of Ki for the following compound: `O=C(NO)C1(S(=O)(=O)N2CCC(CCCCOCCC(F)(F)F)CC2)CCOCC1`
0.78

Quick one: give measured log10 of Ki for `CCCCCCOCC1CCN(S(=O)(=O)C2(C(=O)NO)CCOCC2)CC1`
0.92

Could you please provide reported log10 of Ki for CC(C)CCCOC1CCN(S(=O)(=O)C2(C(=O)NO)CCOCC2)CC1 [Example A36D] ? Thanks!
1.08

Supply measured log10 of Ki of `CCCCCCOC1CCN(S(=O)(=O)C2(C(=O)NO)CCOCC2)CC1` in your reply.
0.55

Please supply the value of reported log10 of Ki for the item CCC(CC)(C(=O)NO)S(=O)(=O)N1CCC(c2ccc(CCC(F)(F)C(F)(F)F)cn2)CC1 [Example A60, Hydrochloride]
0.09

Let me know recorded log10 of Ki for `O=C(NO)C1(S(=O)(=O)N2CCC(CCCCOCCCC(F)(F)F)CC2)CCOCC1` , thanks.
0.84

Give reported log10 of Ki value for CC(C)CCCCCOC1CCN(S(=O)(=O)C2(C(=O)NO)CCOCC2)CC1 [Example A36F]
0.39

For the compound `O=C(NO)C1(S(=O)(=O)N2CCC(CCCCCCC(F)(F)C(F)(F)F)CC2)CCOCC1` , give its measured log10 of Ki value.
-0.57

Give the reported log10 of Ki for this compound. `CCCOCCCCC1CCN(S(=O)(=O)C2(C(=O)NO)CCOCC2)CC1`
1.10

Quote log10 of Ki reported for `O=C(NO)C1(S(=O)(=O)N2CCC(OCCCCCCC(F)(F)F)CC2)CCOCC1` please.
0.54

Identify log10 of Ki associated with the compound O=C(NO)C1(S(=O)(=O)N2CCC(c3ccc(CCC(F)(F)C(F)(F)F)cn3)CC2)CCCCC1 [Example A56, Hydrochloride]
-0.33

Supply measured log10 of Ki of `O=C(NO)C1(S(=O)(=O)N2CCC(CCCCc3nc(-c4ccc(OC(F)(F)F)cc4)no3)CC2)CCOCC1` in your reply.
1.80

Indicate the recorded log10 of Ki value for this compound: O=C(NO)C1(S(=O)(=O)N2CCC(c3ccc(OCC(F)(F)C(F)(F)F)cn3)CC2)CCOCC1 [Example A58, Hydrochloride]
-0.28

Give recorded log10 of Ki. `CCOCCCCCC1CCN(S(=O)(=O)C2(C(=O)NO)CCOCC2)CC1`
-0.14

Give me measured log10 of Ki, please, for this compound: O=C(NO)C1(S(=O)(=O)N2CCC(c3ccc(OCC(F)(F)F)cn3)CC2)CCOCC1 [Example A57, Hydrochloride]
-0.28

# return recorded log10 of Ki for input `O=C(NO)C1(S(=O)(=O)N2CCC(CCCCCOCCC(F)(F)F)CC2)CCOCC1`
-0.01

# return recorded log10 of Ki for input O=C(NO)C1(S(=O)(=O)N2CCC(CCCOCCCC(F)(F)F)CC2)CCOCC1 [Example A36J]
0.89

Specify reported log10 of Ki for the compound shown: `O=C(NO)C1(S(=O)(=O)N2CCC(c3cnc(OCCC4CC4)cn3)CC2)CCOCC1`
-0.18
